VQIINK Inhibition IC50 listing for selected binders.
# TARGET SYSTEM: Ac-VQIINK-NH2 (SEQ ID NO: 23) (N-terminal acetyl (Ac); C-terminal amide (NH2))
# TEST: cell-based or functional assay
Square brackets hold non-standard residues; d marks the D form. Ends that are not written are not given here.
Record the result as number plus unit.

# example entries with known answers
{"BINDER": "[dW][dM][dL][dR][dI][dH][dW] [wmlrihw]", "QUANTITY": "VQIINK Inhibition IC50", "ENDPOINT VALUE": "3.34 µm"}
{"BINDER": "[dW][dR][dT][dK][dT][dR][dW] [wrtktrw]", "QUANTITY": "VQIINK Inhibition IC50", "ENDPOINT VALUE": "13.1 µm"}
{"BINDER": "[dL][dK][dI][dY][dI][dH][dY] [lkiyihy]", "QUANTITY": "VQIINK Inhibition IC50", "ENDPOINT VALUE": "0.17 µm"}
{"BINDER": "[dW][dR][dL][dA][dI][dH][dW] [wrlaihw]", "QUANTITY": "VQIINK Inhibition IC50", "ENDPOINT VALUE": "6.49 µm"}
{"BINDER": "[dR][dL][dK][dV][dR][dW][dW] [rlkvrww]", "QUANTITY": "VQIINK Inhibition IC50", "ENDPOINT VALUE": "5.35 µm"}
{"BINDER": "[dH][dY][dH][dI][dR][dI][dK][dL] [hyhirikl]", "QUANTITY": "VQIINK Inhibition IC50", "ENDPOINT VALUE": "0.96 µm"}
{"BINDER": "[dW][dR][dL][dR][dL][dR][dW] [wrlrlrw]", "QUANTITY": "VQIINK Inhibition IC50", "ENDPOINT VALUE": "1.54 µm"}
{"BINDER": "[dF][dK][dL][dW][dL][dR][dW][dF] [fklwlrwf]", "QUANTITY": "VQIINK Inhibition IC50", "ENDPOINT VALUE": "2.52 µm"}

Provide only the value of recorded VQIINK Inhibition IC50 for [dW][dR][dL][dR][dM][dH][dW] [wrlrmhw] 8.93 µm

Provide only the value of recorded VQIINK Inhibition IC50 for [dW][dR][dT][dK][dV][dR][dW] [wrtkvrw] 4.41 µm

Provide only the value of recorded VQIINK Inhibition IC50 for [dW][dR][dL][dE][dI][dH][dW] [wrleihw] 2.2 µm

Provide only the value of recorded VQIINK Inhibition IC50 for [dW][dK][dV][dW][dV][dR][dY][dW] [wkvwvryw] 1.53 µm

Provide only the value of recorded VQIINK Inhibition IC50 for [dK][dL][dK][dW][dL][dW] [klkwlw] 6.93 µm

Provide only the value of recorded VQIINK Inhibition IC50 for [dW][dR][dL][dK][dV][dR][dE][dW] [wrlkvrew] 5.77 µm
